# maps each entry to its INHIBITION
Tested on: Plasmodium berghei
Test: Screen against P. berghei liver stage (PbLuc), transformed with Luciferase, at 10uM
Format: functional, HepG2
Settings: tested at 10 uM
Among all 69,000 compounds or so, about 8,600 (12%) showed an effect of 50% or more. The list comes from a sample in which strong results are over-represented; it also holds close analogues and randomly drawn compounds.

{"columns": ["compound", "INHIBITION"],
 "data": [
  ["CCN1CCC2(CCC(=O)N2Cc2cccc(C)n2)CC1", "-6.77%"],
  ["Cc1csc(N2CCN(C(=O)Cc3cccs3)CC2)n1", "28.8%"],
  ["Cc1c(CN(C)C(=O)c2ccnn2C)cnn1C", "31.7%"],
  ["CC(C)c1n[nH]c(C2CN(CCc3cccs3)CCO2)n1 (stereo not drawn)", "-21.9%"],
  ["COc1ccc(-c2noc(CN3CCCC3Cn3cccn3)n2)cc1 (stereo not drawn)", "29.7%"],
  ["CC(Cn1cccn1)NC(=O)Cc1csc(C(C)C)n1 (stereo not drawn)", "0.914%"],
  ["CCN(CC)C(=O)Cc1csc(C(C)C)n1", "-4.4%"],
  ["Cc1cc(C(=O)N(C)Cc2cnn(C)c2C)n(C)n1", "68.9%"]
]}

###

System: Plasmodium berghei
Assay: Screen against P. berghei liver stage (PbLuc), transformed with Luciferase, at 10uM
Format: functional, HepG2
Conditions: tested at 10 uM
Out of some 69,000 compounds screened, about 8,600 (12%) showed an effect of 50% or more. The entries come from a sample that favours strong results as a whole.
# maps each entry to its INHIBITION

{"columns": ["compound", "INHIBITION"],
 "data": [
  ["Cc1cc(CNc2ccnn2CC(C)C)ccc1-n1cncn1", "89.7%"],
  ["Cc1nc(C)n(CC2CN(Cc3cc(C#N)ccc3F)CCO2)n1 (stereo not drawn)", "51.1%"],
  ["Cc1csc2c(C3CCN(CCOc4ccccc4F)CC3)nc(C)n12", "54%"],
  ["O=C(NC1CC1)c1cc(C2CCCN(Cc3ccccn3)C2)no1 (stereo not drawn)", "-8.12%"],
  ["CC(=O)Nn1ccc2c(nnc3c(-c4ccccc4)cnn32)c1=O", "58.5%"],
  ["CC(C)(C)c1coc([C@@H]2COCCN2Cc2ccccc2)n1", "3.25%"],
  ["O=S1(=O)CCN(CCCc2ccc(Cl)cc2)CC1", "15%"],
  ["Cc1nc(C)n(CC2CN(CCCOc3ccccc3C)CCO2)n1 (stereo not drawn)", "24.4%"],
  ["CCS(=O)(=O)NC1CCCN(c2ccc(F)cc2C)C1=O (stereo not drawn)", "5.29%"],
  ["COc1cc(C)nc(N2CCN(C(=O)c3cccc(C#N)c3)CC2)n1", "8.64%"],
  ["Cc1csc2c(C3CCN(CCCOc4ccccc4)CC3)nc(C)n12", "46.7%"],
  ["CCc1nnc(CN2CCC(N3CCN(CC)C3=O)CC2)o1", "-27.8%"],
  ["COC(=O)CC(NC(=O)c1cccc(N2CCCC2=O)c1)c1cccs1 (stereo not drawn)", "62.8%"],
  ["Cc1cnc(CN(C)C2CCN(Cc3sc(C)nc3C)C2)o1 (stereo not drawn)", "21.6%"],
  ["Cc1cccc(CN2Cc3[nH]nc(COc4cccnc4)c3C2)n1", "34.9%"],
  ["O=C(O)c1ccc(F)c(S(=O)(=O)N2CCOc3ccccc32)c1", "32.44%"],
  ["CCS(=O)(=O)N1CCC(NC(=O)c2cc(C)ccc2O)CC1", "8.665%"],
  ["Cn1c(CN2CCOC[C@H]2c2nc(C(C)(C)C)co2)nc2ccccc21", "52%"],
  ["CC(=O)NCCNC(=O)NCC1Cc2ccccc2O1 (stereo not drawn)", "1.56%"],
  ["COCc1nc2ncc3c(=O)n(-c4ccc(OC)cc4)ccc3n2n1", "15%"],
  ["CC(=O)Nn1ccc2c(nnc3c(-c4ccc(F)cc4)cnn32)c1=O", "58.5%"],
  ["O=S(=O)(NCCn1ccc(-c2ccccn2)n1)C1CCCCC1", "40%"],
  ["NC(=O)C1CCN(C(=O)CCCc2nnc(-c3ccccc3)o2)CC1", "33.7%"],
  ["CCCS(=O)(=O)N1CCC(NC(=O)c2cc3ccccc3s2)CC1", "67.1%"],
  ["COCc1nc2ncc3c(=O)n(-c4ccccc4OC)ccc3n2n1", "66.9%"],
  ["CC(=O)N(Cc1ncc(C)o1)C1CCN(Cc2cccnc2)C1 (stereo not drawn)", "31.9%"],
  ["Cc1ccc(OCCN2CCC(c3nc(C)n4c(C)csc34)CC2)cc1", "29.1%"],
  ["CC(C)(CO)CNC(=O)c1cc(-c2cc[nH]n2)n2ccccc12", "41.2%"],
  ["O=C(O)CCn1ccc(=O)c2ccccc21", "35.1%"],
  ["COc1ccc(-n2ccc(C(=O)N(C)C(C)C3(C)CC3)n2)cc1 (stereo not drawn)", "29.1%"],
  ["Cc1cc(CN2CCCC(NS(C)(=O)=O)C2)ccc1-n1cncn1 (stereo not drawn)", "-3.14%"],
  ["Cc1ccc(C(=O)NC2CCN(Cc3nc(C(C)C)no3)CC2)s1", "13.8%"],
  ["O=C(O)CCn1ccc2c(nnc3c(-c4ccc(F)cc4)cnn32)c1=O", "63.6%"],
  ["Cc1nc(C)n(CC2CN(Cc3cccc(C#N)c3)CCO2)n1 (stereo not drawn)", "10.5%"],
  ["Cc1ccc(C(=O)N2C[C@H](NS(C)(=O)=O)[C@@H](C(C)C)C2)cc1F", "14.3%"],
  ["CCCS(=O)(=O)N1CCC(NC(=O)c2ccc(C)s2)CC1", "-19.3%"],
  ["CC(C)(C)c1coc([C@@H]2COCCN2Cc2ccccn2)n1", "-37.4%"],
  ["O=C(c1ccco1)N1CCc2ncnc(Oc3cccnc3)c2CC1", "29%"]
]}
